# Tested on: HepG2
# experimental-details: cell viability relative to DMSO; higher = less toxic
# assay-context: 72 h; 10 nM
metric: cell viability
Answer with the figure and its unit, nothing else.

1. C[C@H]1COc2c(C3(N)CC3)c(F)cc3c(=O)c(C(=O)O)cn1c23 [pazufloxacin] : 107%
2. Cc1c(-c2ccc(-c3ccccc3F)cc2)nc2ccc(F)cc2c1C(=O)O [brequinar] : 104%
3. O=C(Nc1ccc(Cl)cc1)Nc1cccc(-c2cccc(N3CCCC3)n2)c1 [PSNCBAM-1] : 110%
4. N#CC(c1ccccc1)(c1ccccc1)c1ccccc1Cl [TRAM-39] : 102%
5. Nc1nc(Cl)nc2c1ncn2[C@@H]1O[C@H](CO)[C@@H](O)[C@H]1O [2-chloroadenosine] : 101%
6. Cc1cc2cc3c(C)cc(=O)oc3c(C)c2o1 [trioxsalen] : 88.8%
7. Clc1cccc(N2CCNCC2)c1 [mCPP] : 95.3%
8. CN[C@H]1C(=O)N[C@@H]2Cc3ccc(cc3)Oc3cc4cc(c3O[C@@H]3O[C@H](C(=O)O)[C@@H](O)[C@H](O)[C@H]3NC(=O)CCCCCCCCC(C)C)Oc3ccc(cc3Cl)[C@@H](O)[C@@H]3NC(=O)[C@H](NC(=O)[C@@H]4NC(=O)[C@@H](NC2=O)c2cc(cc(O)c2Cl)Oc2cc1ccc2O)c1ccc(O)c(c1)-c1c(O[C@H]2O[C@H](CO)[C@@H](O)[C@H](O)[C@@H]2O)cc(O)cc1[C@@H](C(=O)NCCCN(C)C)NC3=O [dalbavancin] : 94.3%
9. NCC1CC(=O)N(Cc2ccccc2)C1 (stereo not drawn) [nebracetam] : 108%
10. Cc1cc(C)nc(NS(=O)(=O)c2ccc(NC(=S)NC(=O)COc3ccc(Br)cc3Cl)cc2)n1 [ZCL-278] : 98.1%

For every item in the list below, what is its measured cell viability?
1. CC(C)(Cc1c[nH]c2ccc(Cl)cc12)NCCOc1ccccc1OCC1CC1
2. Cc1cc(Cn2cnc3c2C[C@@H](C(=O)O)N(C(=O)C(c2ccccc2)c2ccccc2)C3)ccc1N(C)C
3. N=C(N)c1ccc(OCCCCCOc2ccc(C(=N)N)cc2)cc1 [pentamidine]

OUT:
1. 98.7%
2. 90.7%
3. 97.5%
